# measured on: Protease (Human immunodeficiency virus 1)
# Sequence (Q9YQ12 whole entry): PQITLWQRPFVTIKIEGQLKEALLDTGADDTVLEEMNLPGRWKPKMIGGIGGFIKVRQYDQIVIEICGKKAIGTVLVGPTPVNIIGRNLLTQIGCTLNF
# experiment summary: Inhibition of HIV1 recombinant protease by fluorometric assay
For each record, check the reported Ki: if it is below 2 nM write Satisfied, else write Not satisfied.

Q: Lab log: compare recorded Ki with 2 nM; is it strictly lower for `CNC(=O)[C@@H](NC(=O)[C@H](OCc1ccccc1)[C@H](O)[C@@H](O)[C@@H](OCc1ccccc1)C(=O)N[C@H]1c2ccccc2C[C@H]1O)C1COC1` ?
A: Not satisfied

Q: In the record for CNC(=O)[C@@H](NC(=O)[C@H](OCc1ccccc1)[C@H](O)[C@@H](O)[C@@H](OCc1ccccc1)C(=O)N[C@H]1c2ccccc2C[C@H]1O)C(C)COC (single isomer, unassigned; 4d) , is Ki less than 2 nM?
A: Not satisfied

Q: # strict comparison: is reported Ki < 2 nM? input = `COCCNC(=O)[C@@H](NC(=O)[C@H](OCc1ccccc1)[C@H](O)[C@@H](O)[C@@H](OCc1ccccc1)C(=O)N[C@H]1c2ccccc2C[C@H]1O)C(C)C`
A: Not satisfied

Q: Input `CNC(=O)[C@H](CCOC)NC(=O)[C@H](OCc1ccccc1)[C@H](O)[C@@H](O)[C@@H](OCc1ccccc1)C(=O)N[C@H]1c2ccccc2C[C@H]1O` ; condition: Ki strictly below 2 nM. Does it hold?
A: Not satisfied

Q: For this molecule, is Ki lower than 2 nM? `CNC(=O)[C@@H](NC(=O)[C@H](OCc1ccccc1)[C@H](O)[C@@H](O)[C@@H](OCc1ccccc1)C(=O)N[C@H]1c2ccccc2C[C@H]1O)C(C)C`
A: Satisfied

Q: Please state whether Ki is below 2 nM for `CC(C)[C@H](NC(=O)[C@H](OCc1ccccc1)[C@H](O)[C@@H](O)[C@@H](OCc1ccccc1)C(=O)N[C@H]1c2ccccc2C[C@H]1O)C(=O)NCC(F)(F)F`
A: Satisfied

Q: Given CNC(=O)[C@@H](NC(=O)[C@H](OCc1ccccc1)[C@H](O)[C@@H](O)[C@@H](OCc1ccccc1)C(=O)N[C@H]1c2ccccc2C[C@H]1O)C(C)COC (single isomer, unassigned; 4e) , is recorded Ki strictly lower than 2 nM?
A: Satisfied

Q: Decide: Ki of `CNC(=O)[C@H](NC(=O)[C@H](OCc1ccccc1)[C@H](O)[C@@H](O)[C@@H](OCc1ccccc1)C(=O)N[C@H]1c2ccccc2C[C@H]1O)C1COC1` strictly below 2 nM?
A: Not satisfied

Q: In plain terms, does `CC(C)[C@H](NC(=O)[C@H](OCc1ccccc1)[C@H](O)[C@@H](O)[C@@H](OCc1ccccc1)C(=O)N[C@H]1c2ccccc2C[C@H]1O)C(=O)NCCF` come in under 2 nM for Ki?
A: Satisfied

---

# measured on: UniProtKB Q9YQ12
# experiment summary: Inhibition of HIV1 protease
observation type: Ki (nM)
Expressed in nM, but write only the number.

Q: # lookup: Ki of `CNC(=O)[C@@H](NC(=O)[C@H](OCc1ccccc1)[C@H](O)[C@@H](O)[C@@H](OCc1ccccc1)C(=O)N[C@H]1c2ccccc2C[C@H]1O)C(C)C`
A: 0.2

Q: Return reported Ki; argument: `O=C(N[C@H]1c2ccccc2C[C@H]1O)[C@H](OCc1ccccc1)[C@H](O)[C@@H](O)[C@@H](OCc1ccccc1)C(=O)N[C@H]1c2ccccc2C[C@H]1O`
A: 0.6
